Target: triton-extracted alpha-synuclein from PD Tissue (Homo sapiens)
Construct: tissue Analytic Biological Services Inc; host or cells: human PD temporal cortex grey matter, Triton X-100 insoluble pellet
Experiment: Alpha-synuclein tissue homogenate binding assay (Assay 1), displacement of [^3H]-1000
Settings: insoluble fraction of PD brain homogenate, [^3H]-1000 3.0 nM, Kd 0.90 nM; read-out: α-synuclein Tissue Ki (Assay 1)
reported.property: Ki (nM)
Give the value, in units of nM, as a plain number.

Below, 4 compounds whose answers are already recorded.
[[record]]
compound = "Cn1cc(-c2ncc(C#Cc3cnc(N4CCN(c5ncccn5)[C@@H](COCCOCCOCCOCCF)C4)nc3)cn2)cn1 [Example 83]"
reported_property = "Ki"
numeric_readout = 2.39

[[record]]
compound = "COC[C@H]1CN(c2ncc(/C=C/c3ccc(-n4ccnc4)nc3)cn2)CCN1c1ncc(CF)cn1 [Example 8]"
reported_property = "Ki"
numeric_readout = 1.1

[[record]]
compound = "OC[C@H]1CN(c2cc(F)ncn2)CCN1c1ncc(/C=C/c2ccc(-n3ccnc3)nc2)cn1 [Example 15]"
reported_property = "Ki"
numeric_readout = 1

[[record]]
compound = "FCCOC[C@H]1CN(c2ncc(C#Cc3cnc(-c4cnco4)nc3)cn2)CCN1c1ncncn1 [Example 55]"
reported_property = "Ki"
numeric_readout = 6.67


Now take the following compound into account.
Entry COC[C@H]1CN(c2ncc(C#Cc3ccc(-c4cnco4)nc3)cn2)CCN1c1ccnc(F)c1 [Example 64] , tested on triton-extracted alpha-synuclein from PD Tissue (Homo sapiens), has a reported Ki of 2.71
